Data origin: patent EP4684783A1

Test: Cell viability (WST / CCK-8 absorbance at 450 nm)
Format: cell-based, Human
Details: human, follicle dermal papilla cells, 3HP 0.1%, 24 hours; single runs (Once / Two times / Three times)
Recorded Metric: viability at 24 h (%)

O=C(O)CCO [Example 3HP, 3-hydroxypropionic acid]; 77.5

###

Test: Cell viability (WST / CCK-8 absorbance at 450 nm)
Format: cell-based, Human
Settings: human, follicle dermal papilla cells, 3HP 0.0125 %, 24 hours; Average
Recorded Metric: viability at 24 h (%)

O=C(O)CCO [Example 3HP, 3-hydroxypropionic acid]; 92.6

###

Test: Cell viability (WST / CCK-8 absorbance at 450 nm)
Format: cell-based, Human
Conditions: human, follicle dermal papilla cells, 3HP 0.05 %, 24 hours; Average
Recorded Metric: viability at 24 h (%)

O=C(O)CCO [Example 3HP, 3-hydroxypropionic acid]; 85.8

###

Test: Cell viability (WST / CCK-8 absorbance at 450 nm)
Format: cell-based, Human
Details: human, follicle dermal papilla cells, 3HP 0.05 %, 24 hours; single runs (Once / Two times / Three times)
Recorded Metric: viability at 24 h (%)

O=C(O)CCO [Example 3HP, 3-hydroxypropionic acid]; 86.5

###

Assay: Cell viability (WST / CCK-8 absorbance at 450 nm)
Type: cell-based, Human
Conditions: human, follicle dermal papilla cells, 3HP 0.1%, 24 hours; Average
Recorded Metric: viability at 24 h (%)

O=C(O)CCO [Example 3HP, 3-hydroxypropionic acid]; 75.3

###

Assay: Cell viability (WST / CCK-8 absorbance at 450 nm)
Format: cell-based, Human
Settings: human, follicle dermal papilla cells, 3HP 0.025 %, 24 hours; Average
Recorded Metric: viability at 24 h (%)

O=C(O)CCO [Example 3HP, 3-hydroxypropionic acid]; 86.7

###

Assay: Cell viability (WST / CCK-8 absorbance at 450 nm)
Assay type: cell-based, Human
Settings: human, follicle dermal papilla cells, 3HP 0.025 %, 24 hours; single runs (Once / Two times / Three times)
Recorded Metric: viability at 24 h (%)

O=C(O)CCO [Example 3HP, 3-hydroxypropionic acid]; 86.6

###

Test: Cell viability (WST / CCK-8 absorbance at 450 nm)
Assay type: cell-based, Human
Details: human, follicle dermal papilla cells, 3HP 0.0125 %, 24 hours; single runs (Once / Two times / Three times)
Recorded Metric: viability at 24 h (%)

O=C(O)CCO [Example 3HP, 3-hydroxypropionic acid]; 90.8
